From: paper doi:10.1101/737510v1

Target: DCAF15-DDB1(ΔBPB)-DDA1 (Homo sapiens, UniProt Q66K64)
pKd: −log10 of the molar value.
quantityName: pKd

pKd for NS(=O)(=O)c1ccc(S(=O)(=O)Nc2cccc3c(Cl)c[nH]c23)cc1 ?
~4.77

###

Target: DCAF15-DDB1(ΔBPB)-DDA1 and RBM39(Δ150) mixture (Homo sapiens, UniProt Q14498+Q66K64)
Experiment: isothermal titration calorimetry
quantityName: pKd
Worth noting: pKd values are minus log10 of concentrations stated in mol/L.

pKd for NS(=O)(=O)c1ccc(S(=O)(=O)Nc2cccc3c(Cl)c[nH]c23)cc1 ?
6.73

###

# EC50 annotations
Biological target: DCAF15-DDB1-DDA1 with RBM39(Δ150) (Homo sapiens, UniProt Q14498+Q66K64)
Assay: TR-FRET ternary complex recruitment assay
All answers are understood in µM, so give the number only.

[
  {
    "compound": "Cc1c[nH]c2c(NS(=O)(=O)c3ccc(S(N)(=O)=O)cc3)cccc12 [compound 1]",
    "testedSystem": "DCAF15-DDB1-DDA1 with RBM39(Δ150) (Homo sapiens, UniProt Q14498+Q66K64)",
    "unitOfMeasure": "µM",
    "EC50": 14.3
  },
  {
    "compound": "Cc1ccc(NS(=O)(=O)c2ccc(N)cc2)c2[nH]cc(C#N)c12 [compound 6, Compound 6]",
    "testedSystem": "DCAF15-DDB1-DDA1 with RBM39(Δ150) (Homo sapiens, UniProt Q14498+Q66K64)",
    "unitOfMeasure": "µM",
    "EC50": 3.82
  }
]

EC50 for O=S(=O)(Nc1cccc2c(Cl)c[nH]c12)c1ccccc1 [compound 5] ?
38.1
